Provenance of the data: ChEMBL document CHEMBL1132146

experiment description: acute toxicity against rat after iv administration
Type: organism-based
setup conditions: in vivo
A collection of compounds and their measured LD50
# output: bare number, implied unit mg/kg

{"compound": "O=P1(NCCCl)OCCCN1CCCl (centres undefined) [IFOSFAMIDE]", "outcome measure": "LD50", "recorded number": 300}
{"compound": "O=P1(NCCCl)NCCCO1 (centres undefined)", "outcome measure": "LD50", "recorded number": 800}

Now for the compound whose LD50 we want.
// query State the recorded LD50 for this entry: `O=P(O)(O)OCCCNCCCl`
// result 800
